Values from PubChem BioAssay

Assay: E. coli growth modulation, two-sided OD650, primary screen, E. coli filamentation project, strain DRC41, 24 h (AID 1093);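 further: MC1000 strain lacking acrAB efflux and sulA so SOS filamentation is blocked; test concentration not given here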
Conditions: OD650, 24 h, higher = more signal, called active from +8 up or from −8 down
MEASURED QUANTITY: z-score

>>> reported_measurement("C=CCNC(=O)[C@H]1[C@@H]2C(=O)O[C@@H](c3ccccc3)[C@@H](c3ccccc3)N2[C@@H](c2ccc(O)cc2)[C@]12C(=O)N(C(=O)OCCOC)c1ccc(C#CCNC(N)=O)cc12")
-0.781
>>> reported_measurement("CCCCc1cn(C[C@H](Cc2ccccc2)NC(=O)N[C@H](CO)CCc2oc(C(C)=O)c(C(=O)OC)c2C(=O)OC)nn1")
0.0003
>>> reported_measurement("O=C1C2C=CC(C(O)c3ccc(F)cc3)N(Nc3ccccc3F)C2C(=O)N1c1ccccc1 (stereo not drawn)")
-0.42
>>> reported_measurement("COCCCNC(=O)[C@@]1(Cc2ccccc2N=[N+]=[N-])N=C(c2ccc(OCCCO)cc2)O[C@H]1c1ccccc1N=[N+]=[N-]")
-0.27
>>> reported_measurement("CC(=O)NCCCC[C@@H]1NC(=O)[C@@H]2C[C@H](C(=O)NCCCCN(C)C)[C@H](c3cccc(OCCO)c3)N2C1=O")
0.187
>>> reported_measurement("CC(C)(C)OC(=O)CC[C@]1(C(=O)O)N=C(c2ccc(OCCCO)cc2)O[C@H]1c1ccccc1N=[N+]=[N-]")
-0.0096
>>> reported_measurement("COCCCN1C(=O)[C@@]2(Cc3ccccc31)c1ccccc1C(=O)N(Cc1ccccc1C(F)(F)F)[C@H]2c1ccc(CO)cc1")
-0.253
>>> reported_measurement("CCCCC(=C=CC[C@@H](O)c1ccccc1OCCO)CCO")
0.205

###

Entries and their composite z-score values follow.
Molecular target: Streptavidin (Streptomyces avidinii) (UniProt P22629)
Sequence (P22629 whole entry, looked up): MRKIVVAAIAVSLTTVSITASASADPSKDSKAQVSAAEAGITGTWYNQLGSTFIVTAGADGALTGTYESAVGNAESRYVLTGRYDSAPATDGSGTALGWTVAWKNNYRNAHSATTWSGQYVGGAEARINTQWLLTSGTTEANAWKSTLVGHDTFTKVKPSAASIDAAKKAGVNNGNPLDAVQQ
Test: streptavidin binders on small-molecule microarray, primary screen, artefact control for SMM compound annotation, biophysical, 635/667 nm fluorescence (AID 1147);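 further: signal reflects streptavidin binding to arrayed compounds as a control protein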
Conditions: streptavidin binding, higher = more signal
MEASURED QUANTITY: composite z-score

>>> reported_measurement("CN1C(=O)[C@]2(Cc3ccccc3)N=C(c3ccc(OCCCO)cc3)O[C@@H]2c2ccccc21")
0.0004
>>> reported_measurement("O=C1O[C@@H](c2ccccc2)[C@@H](c2ccccc2)N2[C@@H](c3ccccc3OCCO)[C@]3(C(=O)Nc4ccc(C#CC5=CCCCC5)cc43)[C@@H](C(=O)Nc3nc4ccccc4s3)[C@H]12")
1.1
>>> reported_measurement("O=C1O[C@H](c2ccccc2)[C@H](c2ccccc2)N2[C@H]1[C@@H](C(=O)N1CCN(c3ncccn3)CC1)[C@]1(C(=O)Nc3ccc(C#CC4=CCCCC4)cc31)[C@H]2c1ccc(O)cc1")
1.08
>>> reported_measurement("[N-]=[N+]=Nc1ccccc1C[C@]1(C(N)=O)N=C(c2ccc(OCCCO)cc2)O[C@H]1c1ccccc1")
0.665
>>> reported_measurement("C=CCNC(=O)[C@@H]1[C@H]2C(=O)O[C@H](c3ccccc3)[C@H](c3ccccc3)N2[C@H](c2ccc(OCCO)cc2)[C@@]12C(=O)Nc1ccc(C#CCCO)cc12")
1.6
>>> reported_measurement("COc1ccc(C(=O)Nc2ccc(CN3C(=O)[C@@]4(O[C@@H](CCn5cc([C@H](O)c6ccccc6)nn5)[C@H]([Si](C)(C)c5ccc(OC)cc5)[C@H]4C)c4ccccc43)cc2)cc1")
0.865
>>> reported_measurement("CCCN1C(=O)[C@]2(CCS(=O)(=O)c3ccccc3)N=C(c3ccc(OCCCO)cc3)O[C@@H]2c2ccccc21")
1.24
>>> reported_measurement("COc1ccc([Si](C)(C)[C@H]2[C@H](CC(=O)N3Cc4ccccc4C[C@H]3CO)O[C@@]3(C(=O)N(Cc4ccc(N5CCC5=O)cc4)c4ccccc43)[C@@H]2C)cc1")
0.679
>>> reported_measurement("COC(=O)[C@@]1(Cc2ccccc2)[C@H]2c3cc(C(=O)N4CCCC4)n(CC4CC4)c3C[C@H]2CN1C(=O)c1ccccc1")
0.907
